Numbers sourced from patent US20180086841A1.

Molecular target: T1, human CD27 (human, UniProt P26842 21-260)
T1 construct: also called hCD27; HsCD27
Assay: cell ELISA on transfected CHO cells
Listing of recorded fold EC50 against 131AVH6VL6-hIgG1 by entry.

[
  {
    "Binder": "hCD27.131A VH9VL9 huIgG1 (antibody, V domains shown) VH: EIQLVQSGAEVKKPGASVKVSCKASGYTFTNYGMNWVRQAPGQGLKWMGWINTNTGEPTYAEEFKGRFTFTLDTSASTAYMELSSLRSEDTAVYYCAREGDAMDYWGQGTTVTVSS VL: DIQLTQSPSTLSASVGDRVTITCSASSSVSYMHWYQQKPGKAPKRWIYDTSKLASGVPARFSGSGSGTDYTLTISSLQPEDFATYYCQQWNSYPFTFGQGTKLEIK",
    "fold EC50 against 131AVH6VL6-hIgG1": "≤ 2 fold"
  }
]

Turning now to a further binder:
I'd like to know its fold EC50 against 131AVH6VL6-hIgG1. The binder in question is hCD27.131A VH7VL7 huIgG1 (antibody, V domains shown) VH: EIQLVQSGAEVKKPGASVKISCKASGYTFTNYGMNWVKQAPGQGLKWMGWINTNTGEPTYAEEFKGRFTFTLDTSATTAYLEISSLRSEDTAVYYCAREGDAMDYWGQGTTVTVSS VL: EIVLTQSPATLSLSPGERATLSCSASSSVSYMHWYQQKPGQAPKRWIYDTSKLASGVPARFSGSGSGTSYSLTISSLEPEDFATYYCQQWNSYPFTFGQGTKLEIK ≤ 2 fold
